The measurements presented in this section are drawn from the NIST ThermoML archive (doi:10.1021/acs.jced.6b00460).

Below: a set of entries, each annotated with reported speed of sound.
- reportedConditions: 308.15 K; 101.33 kPa; Liquid; Sing-around technique in a fixed-path interferometer
measuredEndpoint: speed of sound (m/s)

[
  {
    "compound": "CCCCCCCC[n+]1ccc(C)cc1.[Cl-] [4-methyl-1-octylpyridinium chloride]",
    "measuredEndpoint": "speed of sound",
    "numericResult": 1445.5
  },
  {
    "compound": "CCCCCC[n+]1ccccc1.[Br-] [1-hexylpyridinium bromide]",
    "measuredEndpoint": "speed of sound",
    "numericResult": 1592.5
  },
  {
    "compound": "CCCCCCCC[n+]1ccccc1.[Cl-] [N-octylpyridinium chloride]",
    "measuredEndpoint": "speed of sound",
    "numericResult": 1482.6
  },
  {
    "compound": "CCCCCCCC[n+]1ccccc1.[Br-] [1-octylpyridinium bromide]",
    "measuredEndpoint": "speed of sound",
    "numericResult": 1507.1
  },
  {
    "compound": "CCCCCC[n+]1ccc(C)cc1.[Br-] [1-hexyl-4-methylpyridinium bromide]",
    "measuredEndpoint": "speed of sound",
    "numericResult": 1589.8
  },
  {
    "compound": "CCCCCC[n+]1ccccc1.[Cl-] [1-hexylpyridinium chloride]",
    "measuredEndpoint": "speed of sound",
    "numericResult": 1570.7
  }
]

----------
- reportedConditions: 308.15 K; 101.33 kPa; Liquid; Vibrating tube method
measuredEndpoint: mass density (kg/m3)

[
  {
    "compound": "CCCCCCCC[n+]1ccc(C)cc1.[Cl-] [4-methyl-1-octylpyridinium chloride]",
    "numericResult": 1107.79
  },
  {
    "compound": "CCCCCC[n+]1ccccc1.[Br-] [1-hexylpyridinium bromide]",
    "numericResult": 1235.72
  },
  {
    "compound": "CCCCCCCC[n+]1ccccc1.[Br-] [1-octylpyridinium bromide]",
    "numericResult": 1168.14
  },
  {
    "compound": "CCCCCC[n+]1ccc(C)cc1.[Br-] [1-hexyl-4-methylpyridinium bromide]",
    "numericResult": 1214.46
  }
]
